Hey, just so you know, these numbers are from patent US7932254B2.

SYSTEM UNDER TEST: JAK3 (recombinant human kinase domain) (Homo sapiens)
Sequence (P52333 822-1111 limits assumed): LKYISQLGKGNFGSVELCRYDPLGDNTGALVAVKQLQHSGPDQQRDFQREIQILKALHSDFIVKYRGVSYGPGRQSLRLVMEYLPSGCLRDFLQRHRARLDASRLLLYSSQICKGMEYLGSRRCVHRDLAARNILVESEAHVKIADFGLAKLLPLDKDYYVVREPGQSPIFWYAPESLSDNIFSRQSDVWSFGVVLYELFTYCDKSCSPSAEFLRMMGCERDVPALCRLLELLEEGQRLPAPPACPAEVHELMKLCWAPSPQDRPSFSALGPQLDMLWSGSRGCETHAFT
TEST NAME: Determination of IC50 of Janus Kinase (JAK) inhibition, radioactive end-point 33P-ATP assay, JAK3
APPLIED CONDITIONS: ATP 1.5 uM, peptide 50 uM, 20 minutes, room temperature, read-out: IC50 h-jak3-sf21-c
OBSERVED PROPERTY: pIC50
Note on pIC50: it is the negative log10 of concentration, concentration in mol/L.

Exercise: Query (molecule): CN1CC=C(c2c[nH]c3ccc(-c4cnc5[nH]cc(C(=O)C(C)(C)C)c5n4)cc23)CC1 [Compound I-50] ; field requested: pIC50
Key: 6.81

Exercise: Query (molecule): CN(c1cc(-c2cnc3[nH]cc(C(=O)C(C)(C)C)c3n2)cc2[nH]ccc12)S(=O)(=O)c1ccc(N)cc1 [Compound I-54] ; field requested: pIC50
Key: 6.80

Exercise: Query (molecule): CC(C)(C)C(=O)c1c[nH]c2ncc(-c3ccc4c(ccn4Cc4ccncc4)c3)nc12 [Compound I-49] ; field requested: pIC50
Key: 6.82

Exercise: Query (molecule): CC1(C(=O)c2c[nH]c3ncc(-c4ccc5[nH]ccc5c4)nc23)CCCCC1 [Compound I-52] ; field requested: pIC50
Key: 7.49

###

Give melting point for every item shown.

Exercise: Query (compound): CC(C)(C)C(=O)c1c[nH]c2ncc(-c3cc(NS(C)(=O)=O)c4cc[nH]c4c3)nc12 ; field requested: melting point
Key: > 300 °C

Exercise: Query (compound): CC(C)(C)C(=O)c1c[nH]c2ncc(-c3cc(NS(=O)(=O)c4cccnc4)c4cc[nH]c4c3)nc12 ; field requested: melting point
Key: 305 to 307 °C

Exercise: Query (compound): CN1CCOc2cc(-c3cnc4[nH]cc(C(=O)C5(C)CCCCC5)c4n3)ccc21 ; field requested: melting point
Key: 243 to 244 °C

Exercise: Query (compound): CC(C)(C)C(=O)c1c[nH]c2ncc(-c3ccc4c(ccn4Cc4cccnc4)c3)nc12 ; field requested: melting point
Key: 170 to 171 °C

Exercise: Query (compound): CC(C)(C)C(=O)c1c[nH]c2ncc(-c3ccccn3)nc12 ; field requested: melting point
Key: 276 to 278 °C

Exercise: Query (compound): COc1ccc(S(=O)(=O)Nc2cc(-c3cnc4[nH]cc(C(=O)C(C)(C)C)c4n3)cc3[nH]ccc23)cc1 ; field requested: melting point
Key: 231 to 233 °C

###

OBSERVED PROPERTY: melting point

Exercise: Query (compound): CC(C)(C)C(=O)c1c[nH]c2ncc(-c3cc(NS(=O)(=O)c4ccccc4)c4cc[nH]c4c3)nc12 ; field requested: melting point
Key: 275 to 285 °C

Exercise: Query (compound): CCc1cccc(-c2cnc3[nH]cc(C(=O)C(C)(C)C)c3n2)c1 ; field requested: melting point
Key: 199 to 200.1 °C

Exercise: Query (compound): CC(C)(C)C(=O)c1c[nH]c2ncc(-c3ccc4c(c3)SCC(=O)N4)nc12 ; field requested: melting point
Key: > 300 °C

Exercise: Query (compound): CC(C)(C)C(=O)c1c[nH]c2ncc(-c3ccc4c(c3)NC(=O)C(C)(C)O4)nc12 ; field requested: melting point
Key: > 300 °C

Exercise: Query (compound): CC(C)(C)C(=O)c1c[nH]c2ncc(-c3cc(NS(=O)(=O)c4ccc(Cl)cc4)c4cc[nH]c4c3)nc12 ; field requested: melting point
Key: 264 to 266 °C

Exercise: Query (compound): CN1CC=C(c2c[nH]c3ccc(-c4cnc5[nH]cc(C(=O)C(C)(C)C)c5n4)cc23)CC1 ; field requested: melting point
Key: 263 to 265 °C

Exercise: Query (compound): CC(C)(C)C(=O)c1c[nH]c2ncc(-c3cc(NS(=O)(=O)c4ccc(F)cc4)c4cc[nH]c4c3)nc12 ; field requested: melting point
Key: 295 to 297 °C

Exercise: Query (compound): CC(C)(C)C(=O)c1c[nH]c2ncc(-c3cc(NS(=O)(=O)c4ccc(N)cc4)c4cc[nH]c4c3)nc12 ; field requested: melting point
Key: 285 to 292 °C

Exercise: Query (compound): CN1CCOc2ccc(-c3cnc4[nH]cc(C(=O)C(C)(C)C)c4n3)cc21 ; field requested: melting point
Key: 255 to 265 °C

Exercise: Query (compound): CC(C)(C)C(=O)c1c[nH]c2ncc(-c3ccc4c(ccn4Cc4ccncc4)c3)nc12 ; field requested: melting point
Key: 241 to 243 °C

Exercise: Query (compound): CN1C(=O)COc2ccc(-c3cnc4[nH]cc(C(=O)C(C)(C)C)c4n3)cc21 ; field requested: melting point
Key: 277 to 278 °C

Exercise: Query (compound): CC(C)(C)C(=O)c1c[nH]c2ncc(-c3cc(N4CCCC4)ccn3)nc12 ; field requested: melting point
Key: 260 to 263 °C

Exercise: Query (compound): CC(C)(C)C(=O)c1c[nH]c2ncc(-c3ccc4c(ccn4Cc4ccccn4)c3)nc12 ; field requested: melting point
Key: 194 to 196 °C

Exercise: Query (compound): CC1(C(=O)c2c[nH]c3ncc(-c4ccc5c(c4)NC(=O)C(C)(C)O5)nc23)CCCCC1 ; field requested: melting point
Key: > 300 °C

Exercise: Query (compound): CC(C)(C)C(=O)c1c[nH]c2ncc(-c3ccc4c(c3)NC(=O)CO4)nc12 ; field requested: melting point
Key: > 350 °C

Exercise: Query (compound): CN1CCOc2cc(-c3cnc4[nH]cc(C(=O)C(C)(C)C)c4n3)ccc21 ; field requested: melting point
Key: 233 to 234 °C
